meta.source: ChEMBL document CHEMBL1140799

Assay: Inhibition of AP1-mediated transcriptional activation in human Jurkat cells
Assay type: cell-based
Exercise: state measured IC50 for each of the compounds provided.
Answers are plain numbers, in nM.

Worked examples follow.
C1=CC2C(c3ccnc(Nc4ccccc4)n3)=C(c3ccccc3)NN2C=C1 (stereo unspecified): 700
COCCn1cc(-c2ccnc(Nc3ccccc3)n2)c2cccnc21: 11400
COc1cccc(Nc2nccc(C3=C(c4ccccc4)NN4C=CC=CC34)n2)c1 (stereo unspecified): 1600
Cc1ccc(Cl)cc1Nc1nccc(C2=CNN3C=CC=CC23)n1 (stereo unspecified): 4900
COc1cccc(Nc2nccc(C3=CNN4C=CC=CC34)n2)c1 (stereo unspecified): 1800

Lab note: next compound to report on.
Just so you know, measured IC50 for C1=CC2C(c3ccnc(Nc4ccccc4)n3)=CNN2C=C1 (stereo unspecified) came out at 900
